All figures here come from the supplement of paper PMC10307832.

Recorded measurements of relative viability, one per entry
tested on: IA-LM; test: relative viability (nuclei count vs DMSO), 5 days (fraction); higher = more cells survive; conditions: first compound 0.253 µM

MOLECULE	relative viability
Nc1cccc2c1CN(C1CCC(=O)NC1=O)C2=O (stereo not given) [Lenalidomide] + C[C@]1(O)C[C@@H](c2nc(-c3ccc4ccc(-c5ccccc5)nc4c3)c3c(N)nccn32)C1 [Linsitinib] (partner 1 µM)	0.605
Nc1cccc2c1CN(C1CCC(=O)NC1=O)C2=O (stereo not given) [Lenalidomide] + O=C(CCCCCCC(=O)Nc1ccccc1)NO [Vorinostat] (partner 1 µM)	0.852
Nc1cccc2c1CN(C1CCC(=O)NC1=O)C2=O (stereo not given) [Lenalidomide] + C[C@@H](Oc1cc(-c2cnn(C3CCNCC3)c2)cnc1N)c1c(Cl)ccc(F)c1Cl [Crizotinib] (partner 1 µM)	0.833
Nc1cccc2c1CN(C1CCC(=O)NC1=O)C2=O (stereo not given) [Lenalidomide] + CS(=O)(=O)N1CCN(Cc2cc3nc(-c4cccc5[nH]ncc45)nc(N4CCOCC4)c3s2)CC1 [Pictilisib] (partner 1 µM)	0.37
Nc1cccc2c1CN(C1CCC(=O)NC1=O)C2=O (stereo not given) [Lenalidomide] + O=C(c1cc(Cc2n[nH]c(=O)c3ccccc23)ccc1F)N1CCN(C(=O)C2CC2)CC1 [Olaparib] (partner 8 µM)	0.874
